Target: AKT1 E17K (Homo sapiens (Human), UniProt P31749, E17K)
Sequence (P31749 whole entry E17K): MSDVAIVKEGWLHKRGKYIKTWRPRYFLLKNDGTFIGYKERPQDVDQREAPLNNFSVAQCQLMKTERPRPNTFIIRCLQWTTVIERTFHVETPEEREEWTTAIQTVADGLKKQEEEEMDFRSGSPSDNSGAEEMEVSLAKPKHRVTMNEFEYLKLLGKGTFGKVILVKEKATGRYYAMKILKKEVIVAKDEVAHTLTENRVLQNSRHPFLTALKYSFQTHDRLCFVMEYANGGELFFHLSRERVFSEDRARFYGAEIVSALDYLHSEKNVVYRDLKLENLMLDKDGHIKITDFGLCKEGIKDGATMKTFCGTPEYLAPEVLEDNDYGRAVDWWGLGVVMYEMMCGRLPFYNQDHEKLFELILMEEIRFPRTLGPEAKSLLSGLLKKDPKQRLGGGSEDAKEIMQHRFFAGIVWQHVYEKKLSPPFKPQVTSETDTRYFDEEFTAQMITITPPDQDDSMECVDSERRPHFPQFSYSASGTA
Experiment: Live cell target engagement (NanoBRET) in HEK293 cells
Assay type: cell-based
Documented AKT1 E17K IC50: Selectivity vs AKT1 WT across a set of compounds
I only need the number, thanks.

Would you please look over these solved cases?
>>> assay_value("Nc1ncccc1-c1nc2ccc(-c3cccnc3)nc2n1-c1ccc(CNC(=O)c2ccc(O)c(C=O)c2)cc1")
5.8
>>> assay_value("Nc1ncccc1-c1nc2ccc(-c3ccccc3)nc2n1-c1ccc(CNC(=O)Cc2cnc(C=O)c(O)c2)cc1")
4.3

Now examine the next entry.
Lookup: Using the record for Nc1ncccc1-c1nc2cccnc2n1-c1ccc(CNCCc2ccc(C=O)c(O)c2)cc1 , report its AKT1 E17K IC50: Selectivity vs AKT1 WT.
Found: 2.2

The measurements presented in this section are drawn from patent US20250115600A1.
